target: plasma purified human antithrombin III (AT-III) in complex with full-length unfractionated heparin (UFH)
RESULT TYPE: K0.5-mut/K0.5-wt (fold)
Write it as a number; the unit fold goes unstated.

Quick note, K0.5-mut/K0.5-wt for FIXa K247N/N249S/R318Y/R338E/R403E/E410N (protein) chain 1: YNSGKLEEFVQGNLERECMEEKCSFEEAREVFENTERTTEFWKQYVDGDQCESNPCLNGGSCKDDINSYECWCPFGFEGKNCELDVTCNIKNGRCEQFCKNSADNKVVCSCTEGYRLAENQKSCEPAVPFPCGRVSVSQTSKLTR chain 2: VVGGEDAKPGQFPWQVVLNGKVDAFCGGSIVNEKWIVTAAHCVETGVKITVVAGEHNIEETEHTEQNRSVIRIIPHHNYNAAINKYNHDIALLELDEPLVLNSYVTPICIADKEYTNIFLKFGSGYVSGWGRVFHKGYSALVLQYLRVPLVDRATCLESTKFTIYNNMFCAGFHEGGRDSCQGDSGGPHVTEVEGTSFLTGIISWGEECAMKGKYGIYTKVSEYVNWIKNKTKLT landed at 418
